Recorded values, source a collection of fitness landscapes (doi:10.1126/science.1257360).

B1: PhoQ; a variant is named by its letters at X, in order, P23837 (parent)
chain: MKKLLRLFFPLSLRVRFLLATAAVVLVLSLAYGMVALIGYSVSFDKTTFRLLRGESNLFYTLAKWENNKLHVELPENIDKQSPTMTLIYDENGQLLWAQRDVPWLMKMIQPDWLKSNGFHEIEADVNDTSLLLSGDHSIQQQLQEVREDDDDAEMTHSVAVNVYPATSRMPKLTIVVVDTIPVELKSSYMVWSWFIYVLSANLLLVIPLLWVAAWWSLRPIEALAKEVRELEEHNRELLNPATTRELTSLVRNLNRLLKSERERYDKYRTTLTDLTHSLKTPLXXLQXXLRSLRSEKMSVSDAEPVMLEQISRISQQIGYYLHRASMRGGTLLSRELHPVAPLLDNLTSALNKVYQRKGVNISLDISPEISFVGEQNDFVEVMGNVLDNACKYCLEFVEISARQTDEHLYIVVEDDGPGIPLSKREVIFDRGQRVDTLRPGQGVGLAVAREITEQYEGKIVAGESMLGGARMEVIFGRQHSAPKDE

Variants of: B1
procedure-text: enrichment ratio after two sorts for PhoP signalling (ratio (wild type AVST 3.29)); higher = more functional
experimental-setup: with PhoP (E. coli)
In all, about 140,000 sequences were measured (“enrichment ratio after two sorts for PhoP signalling”: median about 0, highest 2% from about 11 on). Shown is part of a subset that was picked to be rich in the highest values.
Reported values of enrichment ratio for individual entries
recorded-metric: enrichment ratio

INSERT INTO measurements (mutation_code, recorded_metric, meas_value) VALUES
  ('DFRP', 'enrichment ratio', '≤ 0.25'),
  ('VGMI', 'enrichment ratio', 20.4),
  ('WEVD', 'enrichment ratio', '≤ 0.25'),
  ('VDKC', 'enrichment ratio', '≤ 0.25'),
  ('GNVV', 'enrichment ratio', 5.22),
  ('YYHL', 'enrichment ratio', '≤ 0.25'),
  ('SEIQ', 'enrichment ratio', 22.9),
  ('SSGH', 'enrichment ratio', 7.6),
  ('VGMG', 'enrichment ratio', '≤ 0.25'),
  ('HYLL', 'enrichment ratio', '≤ 0.25'),
  ('KGLY', 'enrichment ratio', '≤ 0.25'),
  ('AALL', 'enrichment ratio', 14.9),
  ('TNQN', 'enrichment ratio', 16.8),
  ('QWVH', 'enrichment ratio', '≤ 0.25'),
  ('KYIQ', 'enrichment ratio', '≤ 0.25'),
  ('AQWF', 'enrichment ratio', '≤ 0.25'),
  ('RGMI', 'enrichment ratio', '≤ 0.25'),
  ('KPYK', 'enrichment ratio', '≤ 0.25'),
  ('WIVV', 'enrichment ratio', '≤ 0.25'),
  ('VGMW', 'enrichment ratio', '≤ 0.25'),
  ('TNNN', 'enrichment ratio', 14.7),
  ('TEHS', 'enrichment ratio', 18.1),
  ('GQIN', 'enrichment ratio', '≤ 0.25'),
  ('AILL', 'enrichment ratio', 4.86),
  ('TNEN', 'enrichment ratio', '≤ 0.25'),
  ('NEHY', 'enrichment ratio', '≤ 0.25'),
  ('GIMC', 'enrichment ratio', 17.3);
